- METHOD_NOTES: in vivo
- COND: male, CD1, mouse, po, 30 mg/kg
PARAMETER_MEASURED: Cmax (ng/mL)
Hi! Could you send only the number? It should be in ng/mL, unit omitted.

Query block: Give a short answer stating reported Cmax for COc1ccnc(S(=O)(=O)Nc2ccc(-c3nc(NCCN(C)C)c4c(C)n[nH]c4n3)cc2)c1 [Compound 27] .
Result block: 40.3

Query block: Fill in reported Cmax for this entry: Cc1n[nH]c2nc(-c3ccc(NS(=O)(=O)c4cc(Cl)ccc4F)cc3)nc(OCCN(C)CCO)c12 [Compound 86]
Result block: 40.9

Query block: Please give the documented Cmax of Cc1n[nH]c2nc(-c3ccc(NS(=O)(=O)c4cc(Cl)ccc4F)cc3)nc(NCCN(C)CCOC(=O)CC(C)C)c12 [Compound 83]
Result block: 788
